# EXPERIMENTAL SYSTEM: T1, recombinant human EGFR extracellular domain with 6xHis (human, UniProt P00533 25-645)
# T1 construct: In-house produced; also called 6xHis EGFR ECD; soluble human EGFR ECD; not shown: 6xHis tag
# MEASUREMENT DESCRIPTION: SPR competition, competitor Erbitux
The entries below are paired with their reported % inhibition.
Report as a plain number; the unit % is understood.

| BINDER | PROPERTY MEASURED | UNITS SYMBOL | RECORDED NUMBER |
| --- | --- | --- | --- |
| antibody 1260 (antibody, human IgG1, kappa, V domains shown, Chimeric IgG1 kappa) VH: QVQLKESGPGLVAPSQSLSITCTVSGFSLTTYGVHWVRQPPGKGLEWLGVIWAGGSTNYNSALMSRLSIKKDNSKSQVFLKMNSLQTDDTAMYYCARAYGYNFDYWGQGTTLTVSS VL: DIQMTQTTSSLSASLGDRVTISCSASQGITNYLNWYQQKPDGTVKLLIYYSSSLHSGVPSRFSGSGSGTDYSLTISNLEPEDIATYYCQQYSEIPYTFGGGTKLELKR | % inhibition | % | 8 |

API: the following record is the query input.
Query % inhibition for antibody 1347 (antibody, human IgG1, kappa, V domains shown, Chimeric IgG1 kappa) VH: QVQLKESGPGLVAPSQSLSITCTVSGFSLTGHGVNWVRQPPGKGLEWLGMIWGDGSTDYNSTLKSRLSISKDNSKSQVFLKMNSLQTDDTARYYCARGYGYLYYFDYWGQGTTLTVSS VL: ENVLTQSPAIMSASPGEKVTMTCRASSSVSSSYLHWYQQKSGASPKLWIYSTSNLASGVPARFSGSGSGTSYSLTVNSVETEDAATYYCHQYSGFPFTFGSGTKLELKR
-4
